Biological target: PEPT 1 (Rattus norvegicus, UniProt P51574)
Assay: in vivo
Conditions: male, Sprague-Dawley, po, […], Tmax of CDX

{"chemical-string": "CC1=C(C(=O)O)N2C(=O)[C@@H](NC(=O)[C@H](N)c3ccc(O)cc3)[C@H]2SC1", "result-unit": "min", "Tmax": 57}

====

Biological target: PEPT 1 (Rattus norvegicus)
Assay: in vivo
Details: male, Sprague-Dawley, po, 5 mg/kg, AUC0-∞ of CDX
observable: AUC(0-inf) (ng·h/mL)

{"compound": "CC1=C(C(=O)O)N2C(=O)[C@@H](NC(=O)[C@H](N)c3ccc(O)cc3)[C@H]2SC1 [Cefadroxil, cefadroxil]", "observable": "AUC(0-inf)", "recorded-value": 2700}

====

Biological target: UniProt:P51574
Sequence (P51574 1-710): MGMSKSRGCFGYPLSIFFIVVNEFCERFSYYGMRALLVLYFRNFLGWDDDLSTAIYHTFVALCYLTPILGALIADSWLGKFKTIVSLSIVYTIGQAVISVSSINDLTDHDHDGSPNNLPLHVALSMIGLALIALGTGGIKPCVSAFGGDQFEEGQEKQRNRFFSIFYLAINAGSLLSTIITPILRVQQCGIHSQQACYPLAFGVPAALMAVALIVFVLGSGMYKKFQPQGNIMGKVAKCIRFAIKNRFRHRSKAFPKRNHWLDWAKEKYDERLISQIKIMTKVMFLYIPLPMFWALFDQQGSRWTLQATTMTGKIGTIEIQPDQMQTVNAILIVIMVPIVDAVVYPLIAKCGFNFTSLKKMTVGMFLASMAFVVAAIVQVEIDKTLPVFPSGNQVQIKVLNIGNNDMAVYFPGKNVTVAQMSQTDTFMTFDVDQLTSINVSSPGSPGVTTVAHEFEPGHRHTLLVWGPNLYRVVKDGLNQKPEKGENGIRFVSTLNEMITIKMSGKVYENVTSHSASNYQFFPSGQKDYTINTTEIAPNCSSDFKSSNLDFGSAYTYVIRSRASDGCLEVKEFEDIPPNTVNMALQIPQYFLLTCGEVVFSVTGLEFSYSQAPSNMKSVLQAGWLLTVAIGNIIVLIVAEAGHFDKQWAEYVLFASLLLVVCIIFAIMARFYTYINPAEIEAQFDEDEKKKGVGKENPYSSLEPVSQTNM
Test: in vivo
Conditions: male, Sprague-Dawley, po, 5 mg/kg, ke (elimination rate constant) of CDX
observable: k el (s⁻¹)

{"compound": "CC1=C(C(=O)O)N2C(=O)[C@@H](NC(=O)[C@H](N)c3ccc(O)cc3)[C@H]2SC1 [Cefadroxil, cefadroxil]", "assay-target": "UniProt:P51574", "observable": "k el", "result-unit": "s⁻¹", "recorded-value": "8.61e-05"}

====

Biological target: PEPT 1 (Rattus norvegicus)
Assay: in vivo
Settings: male, Sprague-Dawley, po, 5 mg/kg, Tmax of CDX

{"chemical-string": "CC1=C(C(=O)O)N2C(=O)[C@@H](NC(=O)[C@H](N)c3ccc(O)cc3)[C@H]2SC1", "Tmax, h": 1.09}

====

Experiment: CDX plasma pharmacokinetics after instant intravenous injection to rats with or without oral VK-PRX
Conditions: male, Sprague-Dawley, rat
observable: clearance (mL/min)

{"chemical-string": "CC1=C(C(=O)O)N2C(=O)[C@@H](NC(=O)[C@H](N)c3ccc(O)cc3)[C@H]2SC1", "result-unit": "mL/min", "recorded-value": 11}

====

Assay: CDX plasma pharmacokinetics after instant intravenous injection to rats with or without oral VK-PRX
Conditions: male, Sprague-Dawley, rat

{"chemical-string": "CC1=C(C(=O)O)N2C(=O)[C@@H](NC(=O)[C@H](N)c3ccc(O)cc3)[C@H]2SC1", "result-unit": "L", "Vd": 0.162}

These entries and their values trace back to patent US7420029B2.
